Data provenance: patent US20150225404A1

Exercise: for every item that follows, state its recorded pIC50.
tgt: human mGluR5 (Homo sapiens)
Sequence (P41594 21-1212): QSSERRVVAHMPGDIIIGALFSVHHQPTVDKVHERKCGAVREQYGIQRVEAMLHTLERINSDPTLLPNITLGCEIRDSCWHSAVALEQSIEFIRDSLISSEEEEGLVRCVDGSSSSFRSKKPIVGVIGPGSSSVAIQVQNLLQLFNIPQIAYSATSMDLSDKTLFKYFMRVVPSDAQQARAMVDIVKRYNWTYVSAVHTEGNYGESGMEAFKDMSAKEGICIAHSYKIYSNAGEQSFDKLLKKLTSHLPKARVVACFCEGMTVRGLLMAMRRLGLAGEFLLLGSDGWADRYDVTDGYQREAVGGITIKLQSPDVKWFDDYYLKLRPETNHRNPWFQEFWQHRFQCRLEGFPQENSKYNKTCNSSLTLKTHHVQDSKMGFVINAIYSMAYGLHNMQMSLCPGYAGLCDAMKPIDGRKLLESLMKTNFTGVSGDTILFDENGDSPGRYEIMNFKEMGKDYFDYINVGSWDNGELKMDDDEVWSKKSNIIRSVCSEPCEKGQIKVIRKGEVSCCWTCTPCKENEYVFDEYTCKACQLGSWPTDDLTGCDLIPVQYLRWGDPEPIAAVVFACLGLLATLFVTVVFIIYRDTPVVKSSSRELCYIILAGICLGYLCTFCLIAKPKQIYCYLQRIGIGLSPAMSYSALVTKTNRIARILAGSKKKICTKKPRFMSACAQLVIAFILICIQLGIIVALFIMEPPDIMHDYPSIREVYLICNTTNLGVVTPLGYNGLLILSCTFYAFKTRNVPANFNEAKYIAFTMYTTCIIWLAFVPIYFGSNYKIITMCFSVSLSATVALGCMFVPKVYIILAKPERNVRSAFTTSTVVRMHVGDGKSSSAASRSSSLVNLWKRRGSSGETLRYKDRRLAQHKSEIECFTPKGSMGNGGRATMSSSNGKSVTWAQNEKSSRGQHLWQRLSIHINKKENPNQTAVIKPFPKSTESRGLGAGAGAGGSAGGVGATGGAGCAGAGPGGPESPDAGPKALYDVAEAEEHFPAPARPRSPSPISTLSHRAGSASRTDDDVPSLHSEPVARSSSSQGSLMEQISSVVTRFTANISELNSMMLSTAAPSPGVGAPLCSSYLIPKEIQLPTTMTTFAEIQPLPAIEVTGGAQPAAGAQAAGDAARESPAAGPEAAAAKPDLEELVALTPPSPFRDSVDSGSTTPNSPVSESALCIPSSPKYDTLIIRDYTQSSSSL
experiment description: Experiment for receptor function of mGluR5 (Ca2+-dependent fluorescence, FLIPR, CHO-K1 cells stably expressing human mGluR5)
particulars: L-glutamic acid 10 μM, Fluo-4 fluorescence
Where a name gives a salt, the structure may show the parent alone.
Reminder that pIC50 is minus the log10 of a molar concentration.

-- ask Query pIC50 on human mGluR5 (Homo sapiens) for C=C1CCc2c(-c3cncnc3)cc(OCc3ccccn3)nc21
-- reply 7.46

-- ask Form entry - test system: human mGluR5 (Homo sapiens); read-out: pIC50; molecule: N#Cc1cccc(COc2cc(-c3cnc(N)nc3)c3c(n2)CCC3)c1
-- reply 7.33

-- ask Give the reported pIC50 for Fc1cccc(COc2cc(-c3cncnc3)c3c(n2)CCCC3)n1 (system: human mGluR5 (Homo sapiens)).
-- reply 7.71

-- ask Form: Entry = N#Cc1ncc(-c2cc(OCc3ccccn3)nc3c2CCC3)cn1 [Example 37, hydrochloride] | System = human mGluR5 (Homo sapiens) | pIC50 = ____
-- reply 7.10

-- ask Give human mGluR5 (Homo sapiens) pIC50 for COC(=O)c1cncc(-c2cc(OCc3ccccn3)nc3c2CCCC3)c1
-- reply 6.88

-- ask Observed pIC50 on human mGluR5 (Homo sapiens) for N#Cc1ccc(-c2cc(OCc3ccccn3)nc3c2CCC3)cn1 [Example 4, hydrochloride] , please.
-- reply 6.83

-- ask Record OCc1cncc(-c2cc(OCc3ccccn3)nc3c2CCCC3)n1 : what is its pIC50 with human mGluR5 (Homo sapiens)?
-- reply 6.64

-- ask Lab request: please report pIC50 under test system human mGluR5 (Homo sapiens) for Cc1ncc(-c2cc(OCc3cccc(C#N)n3)nc3c2CCC3)cn1
-- reply 6.68

-- ask Tell me reported pIC50 for N#Cc1ccc(COc2cc(-c3cccnn3)c3c(n2)CCC3)cc1 , tested with human mGluR5 (Homo sapiens).
-- reply 7.21

-- ask Look up pIC50 with human mGluR5 (Homo sapiens) for this molecule: Fc1cccnc1COc1cc(-c2cccnn2)c2c(n1)CCC2
-- reply 6.93

-- ask Give pIC50 (human mGluR5 (Homo sapiens)) of the following molecule: c1ccc(COc2cc(-c3cccnc3)c3c(n2)CCCCC3)nc1
-- reply 7.54

-- ask Observed pIC50 on human mGluR5 (Homo sapiens) for Cc1ncc(-c2cc(OCc3ccc(F)cn3)nc3c2CCCC3)cn1 , please.
-- reply 7.59

-- ask Give human mGluR5 (Homo sapiens) pIC50 for Fc1cncc(-c2cc(OCc3ccccn3)nc3c2CCCC3)c1 [Example 107, hydrochloride]
-- reply 7.09

-- ask # returns recorded pIC50 (system: human mGluR5 (Homo sapiens)) for N#Cc1cccc(COc2cc(-c3cncnc3)c3c(n2)CCCC3)n1
-- reply 7.71

-- ask What value of pIC50 on human mGluR5 (Homo sapiens) does Nc1ncc(-c2cc(OCc3ncccc3F)nc3c2CCCC3)cn1 [Example 191, hydrochloride] have?
-- reply 7.44

-- ask Return pIC50 measured with human mGluR5 (Homo sapiens) given this molecule: c1ccc(COc2cc(-c3cncnc3)c3c(n2)CCCC3)nc1 [Example 143, hydrochloride]
-- reply 7.42

-- ask Please provide the recorded pIC50 for Cc1cccc(COc2cc(-c3cnc(C)nc3)c3c(n2)CCCC3)n1 [Example 182, hydrochloride] , tested on human mGluR5 (Homo sapiens).
-- reply 6.91

-- ask Kindly state the measured pIC50 obtained for N#Cc1ccc(COc2cc(-c3ccnc(F)c3)c3c(n2)CCC3)nc1 with human mGluR5 (Homo sapiens).
-- reply 7.87
